Data export: IC50 values recorded with BRD2 (His-Brd2(60-472)) (Homo sapiens (Human), UniProt P25440).
Sequence (P25440 60-472): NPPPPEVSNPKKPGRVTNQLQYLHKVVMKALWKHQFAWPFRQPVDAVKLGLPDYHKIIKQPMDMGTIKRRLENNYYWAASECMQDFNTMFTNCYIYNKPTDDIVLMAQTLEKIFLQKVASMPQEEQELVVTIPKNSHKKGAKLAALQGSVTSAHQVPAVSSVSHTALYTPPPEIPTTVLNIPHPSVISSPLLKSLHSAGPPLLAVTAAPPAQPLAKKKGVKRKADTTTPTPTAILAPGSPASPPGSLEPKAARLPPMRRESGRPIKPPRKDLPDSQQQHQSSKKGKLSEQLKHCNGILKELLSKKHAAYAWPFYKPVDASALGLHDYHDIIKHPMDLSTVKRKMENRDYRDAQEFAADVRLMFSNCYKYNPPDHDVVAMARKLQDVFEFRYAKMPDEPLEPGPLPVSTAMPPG
# unit: nM | format: bare number

Task: I'd like to know its IC50. The compound in question is `COCCn1nc(C2CC2)c2c1[C@@H](c1ccc(Cl)cc1)N(c1cc(C)c3nnc(C)n3c1)C2=O`
Output: 20

Task: Recorded IC50 of `Cc1cc(N2C(=O)c3c(C4CC4)nn(C)c3[C@H]2c2ccc(Cl)cc2)cn2c(C)nnc12` , please.
Output: 11

Task: Bench note: what IC50 did COCCn1nc(C2CC2)c2c1C(c1ccc(Cl)cc1)N(c1cc(C)c3nnc(C)n3c1)C2=O (racemic) show?
Output: 17

Task: State the recorded IC50 for this entry: `COc1ncccc1-c1n[nH]c2c1C(=O)N(c1cc(C)c3nnc(C)n3c1)[C@@H]2c1ccc(Cl)cc1`
Output: 46

Task: # query: IC50 of entry `Cc1cc(N2C(=O)c3c(C4CC4)nn(C[C@H](O)C(F)(F)F)c3[C@H]2c2ccc(Cl)cc2)cn2c(C)nnc12`
Output: 13

Task: Would you mind telling me what IC50 value was observed for Cc1cc(N2C(=O)c3c(C4CC4)nn(C)c3C2c2ccc(Cl)cc2)cn2c(C(F)F)nnc12 (racemic) ?
Output: 13

Task: Endpoint output: IC50 of Cc1cc(N2C(=O)c3c(C4CC4)nn(-c4ccnn4C)c3C2c2ccc(Cl)cc2)nn2c(C)nnc12 (centres unmarked) . Value?
Output: 32

Task: Reported IC50 for `COc1cc(N2C(=O)c3c(C4CC4)nn(C)c3[C@H]2c2ccc(Cl)cc2)cn2c(C)nnc12` : what is it?
Output: 57

Task: Reported IC50 for COc1cc(N2C(=O)c3c(C4CC4)nn(C)c3C2c2ccc(Cl)cc2)cc2c1nnn2C (centres unmarked) : what is it?
Output: 38

Task: Param item = `Cc1cc(N2C(=O)c3c(C4CC4)nn(C)c3[C@H]2c2ccc(Cl)cc2)cn2c(C(F)F)nnc12` ; retrieve measured IC50.
Output: 13

Task: May I ask what IC50 has been recorded for COCCn1nc(C2CC2)c2c1C(c1ccc(Cl)cc1)N(c1cc(C)c3nnc(CF)n3c1)C2=O (centres unmarked) ?
Output: 33

Task: Given the compound `Cc1cc(N2C(=O)c3c(C4CC4)nn(C[C@@H](O)C(F)(F)F)c3[C@H]2c2ccc(Cl)cc2)cn2c(C)nnc12` , what is its reported IC50?
Output: 29

Task: Query: IC50; subject: `Cc1cc(N2C(=O)c3c(C4CC4)nn(C)c3[C@H]2c2ccc(Cl)cc2)cn2c(CF)nnc12`
Output: 11

Task: Please look up its IC50: COc1cc(N2C(=O)c3c(C4CC4)nn(C)c3C2c2ccc(Cl)cc2)cn2c(C(F)F)nnc12 (centres unmarked)
Output: 210

Task: Which IC50 is reported for this compound? COc1cc(N2C(=O)c3c(C4CC4)nn(C)c3C2c2ccc(Cl)cc2)cn2c(C)nnc12 (racemic)
Output: 54

Task: # IC50 lookup, item Cc1cc(N2C(=O)c3c(C4CC4)nn(C)c3C2c2ccc(Cl)cc2)cn2c(CF)nnc12 (racemic)
Output: 16

Task: Please look up its IC50: COc1ncccc1-c1n[nH]c2c1C(=O)N(c1cc(C)c3nnc(C)n3c1)C2c1ccc(Cl)cc1 (centres unmarked)
Output: 48

The measurements presented in this section are drawn from patent US9624247B2.
